# run-description: Extended single-dose toxicity study including safety pharmacology endpoints, i.v. bolus (GLP)
# Type: in vivo, beagle dogs
# condition-details: beagle, dog, plasma, iv, 400 ug/kg; Male; 400 μg/kg single i.v. bolus; mean n = 3; read-out: Vss
readout-name: Vd (L/kg)
Just the number in L/kg, nothing appended.

response.value for "CC(C)C[C@@H]1NC(=O)[C@H](Cc2cccc(NC(=O)CCCS(N)(=O)=O)c2)NC(=O)[C@H](CC(=O)O)NC(=O)[C@H]2CCCN2C(=O)[C@H](CCC(=O)O)NC(=O)[C@@H](NC(=O)[C@H](CCC(N)=O)NC(=O)CN2CCN(C(=O)CN3CCN(CC(=O)O)CCN(CC(=O)O)CCN(CC(=O)O)CC3)CC2)CSCc2cccc(c2)CSC[C@@H](C(N)=O)NC(=O)[C@H](CO)NC(=O)[C@H](Cc2c[nH]c3ccccc23)NC(=O)[C@H]([C@@H](C)O)NC1=O" (field: Vd) = 0.19

====

# run-description: Biodistribution study (SPECT/CT) in SK-RC-52 tumor-bearing mice with or without gelofusine
# Type: in vivo, NMRI nude mice
# condition-details: female, NMRI nude, mouse, in vivo, iv, total radioactivity, summary over tumor models; read-out: peak tumor uptake, typical (conclusion)
readout-name: tissue uptake

response.value for CC(C)C[C@@H]1NC(=O)[C@H](Cc2cccc(NC(=O)CCCS(N)(=O)=O)c2)NC(=O)[C@H](CC(=O)O)NC(=O)[C@H]2CCCN2C(=O)[C@H](CCC(=O)O)NC(=O)[C@@H](NC(=O)[C@H](CCC(N)=O)NC(=O)CN2CCN(C(=O)CN3CCN(CC(=O)O)CCN(CC(=O)O)CCN(CC(=O)O)CC3)CC2)CSCc2cccc(c2)CSC[C@@H](C(N)=O)NC(=O)[C@H](CO)NC(=O)[C@H](Cc2c[nH]c3ccccc23)NC(=O)[C@H]([C@@H](C)O)NC1=O [[^111In]In-DPI-4452, metal not drawn] (field: tissue uptake) = 7 %ID/g

====

# tested-on: CAIX-expressing human HT-29 colorectal cancer cells (Homo sapiens, UniProt Q16790)
# Construct: CAIX-expressing human HT-29 colorectal cancer cells; host or cells: HT-29 human colorectal cancer cells
# run-description: FACS binding assay (IC50 determination, competition with tracer 3BP-2776 or 3BP-4149)
# condition-details: FACS competition on HT-29 cells, Tracer ID 3BP-2776 (10 nM, biotin-labeled), 4° C., 1 hour; read-out: pIC50 category (activity) (converted)
# Experimental: In order to determine binding of compounds according to the present invention to CAIX-expressing cells, a FACS binding assay was established. […] Cells were washed twice with ice-cold FACS buffer and analyzed in an Attune NxT flow cytometer (Thermo Fisher). Median fluorescence intensities (MFI) of the APC/Cy5-channel were calculated by Attune NxT software. […]
Starred links: 1 amine or outer side, 2 acyl side, 3 side chain; linkers in the order of their positions; H or OH if unused. Positions of bridges follow the written chain, without caps; N, C: chain ends. Non-standard residues stand in square brackets, D forms with d. Residues, ends and D or L forms follow the SMILES beside them. *: point of attachment. DOTA = O=C(O)CN1CCN(CC(=O)O)CCN(CC(=O)*)CCN(CC(=O)O)CC1; mXylylene = c1cc(C[*:1])cc(C[*:2])c1; Bta = N[C@@H](Cc1csc2ccccc12)C(=O)O; X2 = O=C(CN1CCC(N[*:1])CC1)[*:2]; tBuAla = CC(C)(C)C[C@H](N)C(=O)O; Pen = CC(C)(S)[C@H](N)C(=O)O; dPip = O=C(O)[C@H]1CCCCN1; Ac5c = NC1(C(=O)O)CCCC1; Thp = NC1(C(=O)O)CCOCC1; Aib = CC(C)(N)C(=O)O; Sar = CNCC(=O)O
readout-name: IC50

response.value for CC(=O)N[C@H](C(=O)N[C@@H](Cc1ccc(O)cc1)C(=O)N[C@H]1CSCc2cccc(c2)CSC[C@@H](C(N)=O)NC(=O)[C@H](C)NC(=O)[C@H](Cc2c[nH]c3ccccc23)NC(=O)[C@H]([C@@H](C)O)NC(=O)[C@H](CC(C)(C)C)NC(=O)[C@H](Cc2c[nH]c3ccccc23)NC(=O)[C@H](CC(=O)O)NC(=O)[C@H]2CCCN2C(=O)[C@H](CCC(=O)O)NC1=O)C(C)C [3BP-3490] (Ac-VYCE[dP]DW[tBuAla]TWAC-NH2; linker 3-12 via mXylylene) (field: IC50) = < 0.01 µM

response.value for CC(=O)N[C@H](C(=O)N[C@@H](Cc1ccc(O)cc1)C(=O)N[C@H]1CSCc2cccc(c2)CSC[C@@H](C(N)=O)NC(=O)[C@H](CO)NC(=O)[C@H](Cc2c[nH]c3ccccc23)NC(=O)[C@@H]2CCCCNC(=O)CC[C@H](NC(=O)[C@H]3CCCN3C(=O)[C@H](CCC(=O)O)NC1=O)C(=O)N[C@@H](Cc1c[nH]c3ccccc13)C(=O)N[C@@H](CC(C)C)C(=O)N2)C(C)C [3BP-3901] (Ac-VYCE[dP]EWLKWSC-NH2; linker 3-12 via mXylylene; lactam 6-9) (field: IC50) = 0.01 to 0.0794 µM

response.value for CC(C)[C@H](NC(=O)CN1CCC(NC(=O)CN2CCN(CC(=O)O)CCN(CC(=O)O)CCN(CC(=O)O)CC2)CC1)C(=O)N[C@@H](Cc1ccc(O)cc1)C(=O)N[C@H]1CSCc2cccc(c2)CSC[C@@H](C(N)=O)NC(=O)[C@H](CO)NC(=O)[C@H](Cc2c[nH]c3ccccc23)NC(=O)[C@H]([C@@H](C)O)NC(=O)C2(CCOCC2)NC(=O)[C@H](Cc2c[nH]c3ccccc23)NC(=O)[C@H](CC(=O)O)NC(=O)[C@H]2CCCN2C(=O)[C@H](CCC(=O)O)NC1=O [3BP-3585] ({DOTA}-[X2]VYCE[dP]DW[Thp]TWSC-NH2; linker 4-13 via mXylylene) (field: IC50) = < 0.01 µM

response.value for CC(=O)N[C@H](C(=O)N[C@@H](Cc1ccc(O)cc1)C(=O)N[C@H]1CSCc2cccc(c2)CSC[C@@H](C(N)=O)NC(=O)[C@H](CCC(N)=O)NC(=O)[C@H](Cc2c[nH]c3ccccc23)NC(=O)[C@H]([C@@H](C)O)NC(=O)[C@H](CC(C)C)NC(=O)[C@H](Cc2c[nH]c3ccccc23)NC(=O)[C@H](CC(=O)O)NC(=O)CNC(=O)[C@H](C)NC1=O)C(C)C [3BP-3052] (Ac-VYCAGDWLTWQC-NH2; linker 3-12 via mXylylene) (field: IC50) = < 0.01 µM

response.value for CC(C)[C@H](NC(=O)CN1CCC(NC(=O)CN2CCN(CC(=O)O)CCN(CC(=O)O)CCN(CC(=O)O)CC2)CC1)C(=O)N[C@@H](Cc1ccc(O)cc1)C(=O)N[C@H]1CSCc2cccc(c2)CSC[C@@H](C(N)=O)NC(=O)[C@H](CO)NC(=O)[C@H](Cc2c[nH]c3ccccc23)NC(=O)[C@H]([C@@H](C)O)NC(=O)C2(CCCC2)NC(=O)[C@H](Cc2c[nH]c3ccccc23)NC(=O)[C@H](CC(=O)O)NC(=O)[C@H]2CCCN2C(=O)[C@H](CCC(=O)O)NC1=O [3BP-3587] ({DOTA}-[X2]VYCE[dP]DW[Ac5c]TWSC-NH2; linker 4-13 via mXylylene) (field: IC50) = < 0.01 µM

response.value for CC(=O)N[C@H](C(=O)N[C@@H](Cc1ccc(O)cc1)C(=O)N[C@H]1CSCc2cccc(c2)CSC(C)(C)[C@@H](C(N)=O)NC(=O)[C@H](C)NC(=O)[C@H](Cc2c[nH]c3ccccc23)NC(=O)[C@H]([C@@H](C)O)NC(=O)[C@H](CC(C)(C)C)NC(=O)[C@H](Cc2c[nH]c3ccccc23)NC(=O)[C@H](CC(=O)O)NC(=O)CN(C)C(=O)[C@H](CCC(=O)O)NC1=O)C(C)C [3BP-3501] (Ac-VYCE[Sar]DW[tBuAla]TWA[Pen]-NH2; linker 3-12 via mXylylene) (field: IC50) = < 0.01 µM

response.value for CC(=O)N[C@H](C(=O)N[C@@H](Cc1ccc(O)cc1)C(=O)N[C@H]1CSCc2cccc(c2)CSC[C@@H](C(N)=O)NC(=O)[C@H](C)NC(=O)[C@H](Cc2c[nH]c3ccccc23)NC(=O)[C@H]([C@@H](C)O)NC(=O)[C@H](CC(C)C)NC(=O)[C@H](Cc2c[nH]c3ccccc23)NC(=O)[C@H](CC(=O)O)NC(=O)[C@H]2CCCCN2C(=O)[C@H](CCC(=O)O)NC1=O)C(C)C [3BP-3283] (Ac-VYCE[dPip]DWLTWAC-NH2; linker 3-12 via mXylylene) (field: IC50) = < 0.01 µM

response.value for CC(=O)N[C@H](C(=O)N[C@@H](Cc1ccc(O)cc1)C(=O)N[C@H]1CSCc2cccc(c2)CSC[C@@H](C(N)=O)NC(=O)[C@H](CCC(N)=O)NC(=O)[C@H](Cc2csc3ccccc23)NC(=O)[C@H]([C@@H](C)O)NC(=O)[C@H](CC(C)C)NC(=O)[C@H](Cc2c[nH]c3ccccc23)NC(=O)[C@H](CC(=O)O)NC(=O)CN(C)C(=O)[C@H](CCC(=O)O)NC1=O)C(C)C [3BP-3315] (Ac-VYCE[Sar]DWLT[Bta]QC-NH2; linker 3-12 via mXylylene) (field: IC50) = 0.1 to 0.794 µM

response.value for CC(=O)N[C@H](C(=O)N[C@@H](Cc1ccc(O)cc1)C(=O)N[C@H]1CSCc2cccc(c2)CSC[C@@H](C(N)=O)NC(=O)[C@H](C)NC(=O)[C@H](Cc2c[nH]c3ccccc23)NC(=O)[C@H]([C@@H](C)O)NC(=O)C(C)(C)NC(=O)[C@H](Cc2c[nH]c3ccccc23)NC(=O)[C@H](CC(=O)O)NC(=O)[C@H]2CCCN2C(=O)[C@H](CCC(=O)O)NC1=O)C(C)C [3BP-3502] (Ac-VYCE[dP]DW[Aib]TWAC-NH2; linker 3-12 via mXylylene) (field: IC50) = 0.01 to 0.0794 µM
